Values from ChEMBL document CHEMBL3400149

# assay_text: Oral bioavailability in Sprague-Dawley rat at 10 mg/kg
# Format: ADME, organism-based
# run_conditions: in vivo
measured_parameter: bioavailability (%)

1: CC(=O)N1N=C(c2cc(F)ccc2F)S[C@@]12c1cc(F)c(F)cc1OC[C@H]2CCN
2: CC(=O)N1N=C(c2cc(F)ccc2F)S[C@@]12c1cc(F)ccc1OC[C@H]2CCN
Qu. Just tell me: smaller bioavailability value, 1 or 2 ? Response format: the label of the selected entry.
Ans. 2
(2: 8%, 1: 64%)

----------
# assay_text: Cmax in CD1 mouse at 5 mg/kg, po
# Assay type: ADME, organism-based
# Parameters: dose 5 mg/kg, route oral
# run_conditions: in vivo
measured_parameter: Cmax (nM)
Respond with the bare value in nM.

Qu. Entry `CC(=O)N1N=C(c2cc(F)ccc2F)S[C@@]12c1ccccc1OC[C@H]2CCN` : reported Cmax = ?
Ans. 100
